- ASSAY SYSTEM: T1, HLA-A*02:01 (human)
- T1 construct: The form of the HLA molecule in the fluorescence polarization assay is not described; also called HLA-A2
- ASSAY METHOD TEXT: fluorescence polarization-based competitive peptide-binding assay
Assign log(IC50, nM) to each entry below.

binder="CLNEYHLFL (Synthetic nonamer carrying a tumor amino acid substitution) [TMEM48 F169L AAS peptide CLNEYHLFL (MEL21)]" property_measured="log(IC50, nM)" reported_measurement="3.09 log(IC50, nM)"

Dear colleague, could you send me log(IC50, nM) for each of the items below? Thanks.
1. FLYNLLTRV (Synthetic nonamer carrying a tumor amino acid substitution) [SEC24A P469L AAS peptide FLYNLLTRV (MEL38)]
2. AMFWSVPTV [TKT R438W AAS peptide AMFWSVPTV, anchor-modified at P9 (MEL21)]

2.68 log(IC50, nM)
2.35 log(IC50, nM)
